- tested on: T1, human IL-33 (R&D Systems, #3625-IL-010/CF) (human, UniProt O95760 112-270)
- T1 construct: also called hIL-33; huIL-33
- T1 sequence (looked up): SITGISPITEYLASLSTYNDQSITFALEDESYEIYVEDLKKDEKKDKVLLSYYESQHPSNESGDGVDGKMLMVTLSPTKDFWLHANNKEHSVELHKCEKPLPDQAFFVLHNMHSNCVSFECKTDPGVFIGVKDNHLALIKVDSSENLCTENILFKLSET
- experiment: SPR Biacore T200, 25 C
endpoint label: pKd
Keep in mind that pKd stands for -log10 of concentration in molar terms.

Form field pKd, entry 10C12.38.H6.87Y.58I IgG4 (antibody, V domains shown, also called anti-IL33 10C12.38.H6.87Y.58I IgG4) VH: EVQLVESGGGLVQPGGSLRLSCAASGFTFSSFSMSWVRQAPGKGLEWVATISGGKTFTDYVDSVKGRFTISRDDSKNTLYLQMNSLRAEDTAVYYCTRANYGNWFFEVWGQGTLVTVSS VL: EIVLTQSPATLSLSPGERATLSCRASESVAKYGLSLLNWFQQKPGQPPRLLIFAASNRGSGIPARFSGSGSGTDFTLTISSLEPEDFAVYYCQQSKEVPFTFGQGTKVEIKR : 9.88
